- Tested on: SNB-19
- EXPERIMENT_DESCRIPTION: NCI tumour cell line growth inhibition, 48 h
Active and inactive are the calls of the source. No stated cut-off is given here; in the data, active = GI50 up to about 1.1 µM and inactive = higher. *1 amine or outer side, *2 acyl side, *3 side chain or, on linkers, in order; H or OH if unused. Where a SMILES comes first, the peptide text is derived from it. Bridges are numbered along the chain shown (N, C = ends). Roman numbers before positions name the chains, in order. [ ]: non-standard residue; d: D form. Actinocin(9to1) = Cc1c2oc3c(C)ccc(C(=O)[*:1])c3nc-2c(C(=O)[*:2])c(N)c1=O; NMeV = CN[CH](C(=O)O)C(C)C; Sar = CNCC(=O)O
Write down one outcome, taken from yes (active), no (inactive)

**Q:** Hi, do you know how COC(=O)CC1(O)C(/C=C/c2ccccc2)C(C(=O)OC)C(=O)C(C(=O)OC)C1C(=O)OC (stereo not drawn) came out in this test?
**A:** no

**Q:** Hi, do you know how "O=C(O[C@@H](/C=C/c1ccccc1)P1(=O)N(Cc2ccccc2)[C@@H]2CCCC[C@H]2N1Cc1ccccc1)c1ccccc1" came out in this test?
**A:** no

**Q:** Hi, do you know how "CC(=N/NC(=S)N1CCCCC1)/C(=N\NC(=S)N1CCCCC1)c1ccccc1" came out in this test?
**A:** no

**Q:** Hi, do you know how Cc1c2oc3c(C)ccc(C(=O)NC4C(=O)NC(C(C)O)C(=O)N5CCCC5C(=O)N(C)CC(=O)N(C)C(C(C)C)C(=O)OC4C)c3nc-2c(C(=O)NC2C(=O)NC(C(C)O)C(=O)N3CCCC3C(=O)N(C)CC(=O)N(C)C(C(C)C)C(=O)OC2C)c(N)c1=O (stereo not drawn) (I: TTP[Sar][NMeV] / II: TTP[Sar][NMeV]; ester I:1-I:C, II:1-II:C; linker I:N-II:N via Actinocin(9to1); configuration not given here) came out in this test?
**A:** yes

**Q:** Hi, do you know how "CN1CCN(C(=O)CCC(=O)Nc2cc3c(c4ccccc24)-c2ccc4ccccc4c2C3)CC1" came out in this test?
**A:** no

**Q:** Hi, do you know how "COc1cc(OC)c2c(C)cc(=O)oc2c1" came out in this test?
**A:** no

**Q:** Hi, do you know how "COc1ccc([C@H]2CC(=O)NCCCCN2)cc1" came out in this test?
**A:** no

**Q:** Hi, do you know how "CN(N=O)N1C(=O)SCC(c2ccccc2)(c2ccccc2)C1=O" came out in this test?
**A:** no

**Q:** Hi, do you know how "Oc1cccc(-c2nc3ccccc3s2)c1" came out in this test?
**A:** no

**Q:** Hi, do you know how "CC(C)(C)OC(=O)NCCNC(=O)OCc1ccccc1" came out in this test?
**A:** no

**Q:** Hi, do you know how "O=C(O)C(=C\c1ccc2c(c1)OCO2)/C(=C/c1ccc2c(c1)OCO2)C(=O)O" came out in this test?
**A:** no

**Q:** Hi, do you know how CC1OC1C(=O)P(=O)(O)O (stereo not drawn) came out in this test?
**A:** no

**Q:** Hi, do you know how "N#CCCN(CCCCN(CCC#N)C(=O)Nc1ccccc1)C(=O)Nc1ccccc1" came out in this test?
**A:** no

**Q:** Hi, do you know how "CC(C)(C)c1ccc(OCC(=O)O)c(Cl)c1" came out in this test?
**A:** no

**Q:** Hi, do you know how "Cc1ccc(/C=N/Nc2ccccn2)s1" came out in this test?
**A:** no

**Q:** Hi, do you know how "CC1(C)[C@H](C(=O)O)N2C(=O)[C@@H](NS(=O)(=O)c3ccc([N+](=O)[O-])cc3)[C@H]2S1(=O)=O" came out in this test?
**A:** no

**Q:** Hi, do you know how "Cc1ccc2[nH]c3c4c5ccccc5nc-4c[nH]c3c2c1" came out in this test?
**A:** no

**Q:** Hi, do you know how "CCCCCCCCOCC1S(=O)(=O)OCCOS1(=O)=O" came out in this test?
**A:** no

Values compiled from ChEMBL document CHEMBL1201862.
